The values you see were collected from the NIST ThermoML archive (doi:10.1021/je101361u).

# reported_conditions: 317.15 K; 101.33 kPa; Liquid
± gives the expanded uncertainty stated by the source.
experimental_endpoint: mass density

compound=CCOCCOCCOCC experimental_endpoint="mass density" experimental_result="883.48 ± 1.1 kg/m3"
compound=COCCOCCOC experimental_endpoint="mass density" experimental_result="919.8 ± 0.42 kg/m3"
compound=ClCCCl experimental_endpoint="mass density" experimental_result="1217.64 ± 0.25 kg/m3"
compound=COCCOC experimental_endpoint="mass density" experimental_result="840.17 ± 0.52 kg/m3"

----------
# reported_conditions: 302.15 K; 101.33 kPa; Liquid
mass density values, listed per item
experimental_endpoint: mass density (kg/m3)

compound=CCOCCOCCOCC experimental_result=898.02
compound=COCCOCCOC experimental_result=934.82
compound=ClCCCl experimental_result=1239.76
compound=COCCOC experimental_result=856.91

----------
# reported_conditions: 321.15 K; 101.33 kPa; Liquid
experimental_endpoint: mass density (kg/m3)

molecule="COCCOC [1,2-dimethoxyethane]" experimental_endpoint="mass density" experimental_result=835.64
molecule="CCOCCOCCOCC [diethylene glycol diethyl ether]" experimental_endpoint="mass density" experimental_result=879.6
molecule="ClCCCl [1,2-dichloroethane]" experimental_endpoint="mass density" experimental_result=1211.69
molecule="COCCOCCOC [2,5,8-trioxanonane]" experimental_endpoint="mass density" experimental_result=915.77

----------
The molecules listed here are annotated with their mass density.
# reported_conditions: 331.15 K; 101.33 kPa; Liquid
experimental_endpoint: mass density (kg/m3)

compound=CCOCCOCCOCC experimental_endpoint="mass density" unit_abbrev=kg/m3 experimental_result=869.89
compound=COCCOC experimental_endpoint="mass density" unit_abbrev=kg/m3 experimental_result=824.17
compound=COCCOCCOC experimental_endpoint="mass density" unit_abbrev=kg/m3 experimental_result=905.62
compound=ClCCCl experimental_endpoint="mass density" unit_abbrev=kg/m3 experimental_result=1196.69

----------
# reported_conditions: 294.15 K; 101.33 kPa; Liquid
Here, each record is paired with measured mass density data.
experimental_endpoint: mass density (kg/m3)

compound=CCOCCOCCOCC unit_abbrev=kg/m3 experimental_result=905.75
compound=COCCOC unit_abbrev=kg/m3 experimental_result=865.7
compound=COCCOCCOC unit_abbrev=kg/m3 experimental_result=942.79
compound=ClCCCl unit_abbrev=kg/m3 experimental_result=1251.44

----------
mass density overview
# reported_conditions: 333.15 K; 101.33 kPa; Liquid
experimental_endpoint: mass density (kg/m3)

molecule="COCCOC [1,2-dimethoxyethane]" experimental_endpoint="mass density" experimental_result=821.86
molecule="ClCCCl [1,2-dichloroethane]" experimental_endpoint="mass density" experimental_result=1193.66
molecule="CCOCCOCCOCC [diethylene glycol diethyl ether]" experimental_endpoint="mass density" experimental_result=867.94
molecule="COCCOCCOC [2,5,8-trioxanonane]" experimental_endpoint="mass density" experimental_result=903.59

----------
# reported_conditions: 322.15 K; 101.33 kPa; Liquid
Measured mass density values are reported for all entries that follow.
experimental_endpoint: mass density (kg/m3)

compound=ClCCCl experimental_result=1210.2
compound=COCCOCCOC experimental_result=914.75
compound=CCOCCOCCOCC experimental_result=878.63
compound=COCCOC experimental_result=834.5

----------
// reported mass density for each item listed
# reported_conditions: 292.15 K; 101.33 kPa; Liquid
experimental_endpoint: mass density (kg/m3)

compound=CCOCCOCCOCC experimental_result=907.67
compound=ClCCCl experimental_result=1254.35
compound=COCCOC experimental_result=867.87
compound=COCCOCCOC experimental_result=944.76

----------
The compounds listed here are annotated with their mass density.
# reported_conditions: 295.15 K; 101.33 kPa; Liquid
experimental_endpoint: mass density (kg/m3)

compound=CCOCCOCCOCC experimental_endpoint="mass density" experimental_result=904.78
compound=ClCCCl experimental_endpoint="mass density" experimental_result=1249.98
compound=COCCOCCOC experimental_endpoint="mass density" experimental_result=941.79
compound=COCCOC experimental_endpoint="mass density" experimental_result=864.61

----------
# reported_conditions: 289.15 K; 101.33 kPa; Liquid
Reported values of mass density for individual entries
experimental_endpoint: mass density (kg/m3)

compound=CCOCCOCCOCC unit_abbrev=kg/m3 experimental_result=910.57
compound=COCCOC unit_abbrev=kg/m3 experimental_result=871.14
compound=COCCOCCOC unit_abbrev=kg/m3 experimental_result=947.73
compound=ClCCCl unit_abbrev=kg/m3 experimental_result=1258.7

----------
# reported_conditions: 293.15 K; 101.33 kPa; Liquid
experimental_endpoint: mass density (kg/m3)

compound=COCCOC experimental_result=866.79
compound=CCOCCOCCOCC experimental_result=906.71
compound=ClCCCl experimental_result=1252.89
compound=COCCOCCOC experimental_result=943.76

----------
# reported_conditions: 319.15 K; 101.33 kPa; Liquid
mass density listing for selected molecules.
experimental_endpoint: mass density (kg/m3)

compound=COCCOC experimental_result=837.91
compound=ClCCCl experimental_result=1214.67
compound=COCCOCCOC experimental_result=917.78
compound=CCOCCOCCOCC experimental_result=881.54

----------
Listing of entries alongside the reported mass density.
# reported_conditions: 315.15 K; 101.33 kPa; Liquid
experimental_endpoint: mass density (kg/m3)

compound=CCOCCOCCOCC experimental_endpoint="mass density" experimental_result=885.43
compound=COCCOCCOC experimental_endpoint="mass density" experimental_result=921.81
compound=COCCOC experimental_endpoint="mass density" experimental_result=842.42
compound=ClCCCl experimental_endpoint="mass density" experimental_result=1220.61

----------
# reported_conditions: 308.15 K; 101.33 kPa; Liquid
experimental_endpoint: mass density (kg/m3)

compound="COCCOCCOC [2,5,8-trioxanonane]" experimental_result=928.83
compound="CCOCCOCCOCC [diethylene glycol diethyl ether]" experimental_result=892.21
compound="COCCOC [1,2-dimethoxyethane]" experimental_result=850.24
compound="ClCCCl [1,2-dichloroethane]" experimental_result=1230.95

----------
// reported mass density for each item listed
# reported_conditions: 330.15 K; 101.33 kPa; Liquid
experimental_endpoint: mass density (kg/m3)

compound=ClCCCl experimental_endpoint="mass density" unit_abbrev=kg/m3 experimental_result=1198.19
compound=COCCOC experimental_endpoint="mass density" unit_abbrev=kg/m3 experimental_result=825.33
compound=CCOCCOCCOCC experimental_endpoint="mass density" unit_abbrev=kg/m3 experimental_result=870.87
compound=COCCOCCOC experimental_endpoint="mass density" unit_abbrev=kg/m3 experimental_result=906.63

----------
# reported_conditions: 297.15 K; 101.33 kPa; Liquid
experimental_endpoint: mass density (kg/m3)

compound=COCCOCCOC experimental_result=939.8
compound=CCOCCOCCOCC experimental_result=902.85
compound=COCCOC experimental_result=862.42
compound=ClCCCl experimental_result=1247.07

----------
# reported_conditions: 285.15 K; 101.33 kPa; Liquid
Numbers after ± are expanded uncertainties.
Readings of mass density for the listed compounds
experimental_endpoint: mass density

compound="ClCCCl [1,2-dichloroethane]" experimental_result="1264.5 ± 0.29 kg/m3"
compound="COCCOC [1,2-dimethoxyethane]" experimental_result="875.48 ± 0.47 kg/m3"
compound="CCOCCOCCOCC [diethylene glycol diethyl ether]" experimental_result="914.43 ± 1.1 kg/m3"
compound="COCCOCCOC [2,5,8-trioxanonane]" experimental_result="951.69 ± 0.38 kg/m3"

----------
Known mass density of a selection of compounds
# reported_conditions: 305.15 K; 101.33 kPa; Liquid
Numbers after ± are expanded uncertainties.
experimental_endpoint: mass density

compound=ClCCCl experimental_result="1235.36 ± 0.26 kg/m3"
compound=CCOCCOCCOCC experimental_result="895.12 ± 1.1 kg/m3"
compound=COCCOCCOC experimental_result="931.82 ± 0.4 kg/m3"
compound=COCCOC experimental_result="853.58 ± 0.5 kg/m3"

----------
# reported_conditions: 299.15 K; 101.33 kPa; Liquid
Readings of mass density for the listed molecules
experimental_endpoint: mass density (kg/m3)

molecule="ClCCCl [1,2-dichloroethane]" experimental_endpoint="mass density" unit_abbrev=kg/m3 experimental_result=1244.15
molecule="COCCOC [1,2-dimethoxyethane]" experimental_endpoint="mass density" unit_abbrev=kg/m3 experimental_result=860.22
molecule="COCCOCCOC [2,5,8-trioxanonane]" experimental_endpoint="mass density" unit_abbrev=kg/m3 experimental_result=937.8
molecule="CCOCCOCCOCC [diethylene glycol diethyl ether]" experimental_endpoint="mass density" unit_abbrev=kg/m3 experimental_result=900.92
